Hello, the source for this data is ChEMBL document CHEMBL6134894, in case you need it.

Consider the following compounds and their measured bioavailability readings.
# Protocol: Oral bioavailability in Beagle dog
# Assay type: ADME, organism-based, Canis lupus familiaris
# Conditions: in vivo
Give the value, in units of %, as a plain number.

>>> val("Cc1oc(=O)oc1COC(=O)[C@@](C)(N)Cc1ccc(O)c(O)c1")
92.1

Now for the compound whose bioavailability we want.
Asked: I am curious: what bioavailability value has been reported for C[C@](N)(Cc1ccc(O)c(O)c1)C(=O)O ?
Given back: 94.2

----------
# Protocol: Oral bioavailability in dog at 0.03 mg/kg
# Format: ADME, organism-based, Canis lupus familiaris
# Conditions: in vivo
Experimental Endpoint: bioavailability (%)
Give your result in % as a bare value.

Asked: Tell me the measured bioavailability of Cc1oc(=O)oc1COC(=O)N1CCC(CC[C@@H]2CCCN(CC(=O)N[C@H](C)CC(=O)O)C2=O)CC1 , please.
Given back: 23

----------
# Protocol: AUC in human at 20 mg/kg, po by LC-MS/MS analysis
# Assay type: ADME, organism-based
# Conditions: in vivo
Experimental Endpoint: AUC (ng·h/mL)
The figure you give is taken to be in ng·h/mL; do not add the unit.

Asked: So what does the record say about AUC for CC1Sc2c(C(=O)O)c(=O)c3cc(F)c(N4CCNCC4)cc3n21 (stereo unspecified) ?
Given back: 22200

----------
# Protocol: Oral bioavailability in Sprague-Dawley rat at 10 mg/kg measured for 24 hrs by LC-MS/MS analysis
# Assay type: ADME, organism-based
# Conditions: in vivo
Experimental Endpoint: bioavailability (%)
Reply numerically in %, unit not repeated.

Asked: // returns reported bioavailability for input COC(=O)N[C@H](C(=O)N[C@@H](Cc1ccccc1)[C@@H](O)CN(Cc1ccc(-c2ccccn2)cc1)NC(=O)[C@@H](NC(=O)OC)C(C)(C)C)C(C)(C)C
Given back: 20

----------
# Protocol: Lipophilicity, logP of the compound
# Type: physicochemical
# Conditions: octanol/water; read-out: logP
Below, each of the compounds is paired with its reported logP value.
Lab note: jot the number down without any unit.

Asked: Report logP for Cc1oc(=O)oc1COC(=O)CC[C@H](NC(=O)c1ccc(CCc2c[nH]c3[nH]c(N)nc(=O)c23)cc1)C(=O)O please.
Given back: 1.72

Asked: Same read-out for Cc1oc(=O)oc1COC(=O)CC[C@H](NC(=O)c1ccc(CCc2c[nH]c3[nH]c(N)nc(=O)c23)cc1)C(=O)OCc1oc(=O)oc1C ?
Given back: 2.64
